# assay.summary: activators of macrophage pro-inflammatory response, cell-based, murine, luminescence (AID 652131); also: test concentration not given here
# experimental.parameters: murine macrophage pro-inflammatory reporter, stronger effect = higher value
experimental.readout: z-score
Answer as a number with no unit attached.

O=C(O[C@H]1CN[C@H](C#Cc2cc3ncnc(Nc4ccc5c(cnn5Cc5ccccc5)c4)c3s2)C1)N1CCOCC1 :: -0.862
COc1ccc(-c2cc(C3CNNC3c3ccccn3)ccn2)cc1 (stereo not given) :: 2.73
NCc1ccc(-n2c(-c3nonc3N)nc3cnccc32)cc1 :: -1.05
COc1cc2c(cc1Nc1nc(Nc3cccc(F)c3C(N)=O)c3cc[nH]c3n1)N(C(=O)CN1CCN(C(C)C)CC1)CC2 :: -0.476

Look up z-score: CNC(=O)c1cccc(C#Cc2cncnc2Nc2ccc(OCc3cccc(F)c3)c(Cl)c2)c1 -0.769

Origin of values: PubChem BioAssay
